- test-name: protein stability index of a GFP-peptide fusion (GPS, HEK-293T) (PSI 1-6); higher = more stable;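 note: 24-mer peptide tiles fused after GFP, lentivirally expressed, FACS-sorted into six equal bins by GFP/DsRed ratio, decoded by Illumina sequencing, PSI is the read-weighted mean bin number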
- particulars: treatment: DMSO; c terminus: a fixed tail appended
value-type: protein stability index

// solved cases for protein stability index follow
INSERT INTO assay_data (input_sequence, value_type, result) VALUES
  ('EGCGPPLRRWLRANLAASGGYAIA [TSPAN10]', 'protein stability index', 1.94),
  ('DEKAKPRDRQQAPGLGQESKAPGS [TLE6]', 'protein stability index', 5.49),
  ('LLTGQCDFGSNCRFSHMSERDLQE [ZMAT5]', 'protein stability index', 2.67),
  ('LERGRASLIFSLKNEVGGLIKALK [TPH1]', 'protein stability index', 3.37);

Qu. Value lookup for protein stability index; key = LLEDPLCADVILVLQERVRIFAHK [RHOBTB2]
Ans. 2.21

Qu. Value lookup for protein stability index; key = KSSSLLTQTSEECNGILTEKMEEE [ZNF396]
Ans. 5.56

Qu. Value lookup for protein stability index; key = PLVGQDEFFLEQTKKKGVKRPARL [NOP53]
Ans. 4.18

Qu. Value lookup for protein stability index; key = LLEDDSDEEEDFFLRGPSGPRFGP [VAMP4]
Ans. 3.97

Qu. Value lookup for protein stability index; key = LTQKKPFADEKNILHIMVKVVKGH [RIPK4]
Ans. 2.01

Qu. Value lookup for protein stability index; key = QKELKKAQMAKAAAEERALFTDRM [WEE1]
Ans. 4.69

* * *

List of protein stability index values.
- test-name: protein stability index of a GFP-peptide fusion (GPS, HEK-293T) (PSI 1-6); higher = more stable
- particulars: treatment: MLN4924 1 uM, 8 h; c terminus: a fixed tail appended

INSERT INTO assay_data (input_sequence, value_type, result) VALUES
  ('MSVGHLRLLSHDQVAMPYQWEYPY [JAGN1]', 'protein stability index', 2.02),
  ('TIKVSYARPSSASIRDANLYVSGL [ELAVL3]', 'protein stability index', 2.23),
  ('KIGCGNFGELRLGKNLYTNEYVAI [CSNK1G1]', 'protein stability index', 2.12),
  ('SALFAGNEWRRPIIQFVESGDDKN [TRIM29]', 'protein stability index', 4.13);

Qu. Value lookup for protein stability index; key = LSVLPQLEFKLKSNDNEERLQVVK [PDS5B]
Ans. 3.7

Qu. Value lookup for protein stability index; key = EEGLEARGEALGLVGAQAPATEEQ [MAGEA3]
Ans. 5.39

Qu. Value lookup for protein stability index; key = FAKAGDTLSGTCLLIANKRQSYDI [CARM1]
Ans. 2.36

Qu. Value lookup for protein stability index; key = RQGPKEPPRKSGSFHSSGEKQKQP [PBXIP1]
Ans. 5.17

Qu. Value lookup for protein stability index; key = KFRAKGRKPCKLMLQVVKILVVTV [MCOLN1]
Ans. 2.16

Qu. Value lookup for protein stability index; key = YDASAIDFSRCDMDGATLCNCALE [ELF3]
Ans. 4.02

Qu. Value lookup for protein stability index; key = ECVWNGSDSVIMTGSYNNFFRMFD [PPP2R2B]
Ans. 2.27

Qu. Value lookup for protein stability index; key = CAAVLPGKPGDRNCPEFPPPDRTL [RSPH3]
Ans. 3.76

Qu. Value lookup for protein stability index; key = KCRDLSALMHELSNDGARRQFEFY [BTBD10]
Ans. 2.23

Qu. Value lookup for protein stability index; key = DHPGTPPHKTFRKLRLFDTPHTPK [WEE1]
Ans. 3.98

Qu. Value lookup for protein stability index; key = GDVPPSMSGSCAVCVDRVLYLFGG [KLHDC2]
Ans. 2.47
